Values were extracted from PubChem BioAssay (NCATS).

Assay: qHTS for Inhibitors of the Aldehyde Dehydrogenase Family (ALDH1A2, ALDH1A3, ALDH2, ALDH3A1) (AID 2061307); also: nearly all actives have a fitted effect of over 50% in size; as to Potency: test system not described further here; potency is read from the fitted curve at half-maximal effect
Conditions: ALDH inhibition qHTS; series mostly up to 50.3 µM
Results filed as inconclusive are left out. Calls of active or inactive are those of the source. Calls follow the shape of the dose curve; as a rule, active = well fitted inhibition curve with a large enough effect; inconclusive = small, poorly fitted or top-dose-only effect; inactive = no such curve, though single readings can be large or run the other way.
experimentalReadout: Potency

Guide cases for Potency, answers given:
molecule	Potency
CN(C)CCCNc1ncnc2ccc(-c3ccc4c(c3)OCO4)cc12	inactive
COc1cccc(OC)c1C(=O)N[C@@H]1C(=O)N2[C@@H]1SC(C)(C)[C@@H]2C(=O)O	inactive
N#Cc1ccc(-c2ccc(CNc3ccc(N4CCN5CCCCC5C4)cc3)o2)cc1 (stereo not given)	449 nM (active)
O=C(/C=C/c1ccc(O)c(O)c1)O[C@H]1[C@H](OC2CCCCC2O)O[C@H](CO)[C@@H](O)[C@@H]1O (stereo not given in full)	inactive
Cn1c(=O)c2[nH]c(-c3ccc(S(=O)(=O)O)cc3)nc2n(C)c1=O	inactive

Problem: Quick one: Potency of Cc1cc2c(s1)c(C=O)c(C(=O)NCc1ccccc1F)n2C ?
Solution: 1270 nM (active)

Problem: Report Potency for CC(=O)/C=C1/C(=O)N(C)c2ccccc21 please.
Solution: inactive

Problem: Form field: reported Potency of O=C(C1CCN(c2nc(-c3ccc(Br)cc3)cs2)CC1)N1CCNCC1
Solution: inactive

* * *

Biological target: Retinaldehyde dehydrogenase 3 (Homo sapiens)
Experiment: qHTS for Inhibitors of the Aldehyde Dehydrogenase Family (ALDH1A3) Confirmatory screens (AID 2061311); also: nearly all actives have a fitted effect of over 60% in size
Settings: ALDH inhibition qHTS; series mostly up to 46 µM
Records with an inconclusive call do not appear. Active and inactive are the calls of the source. The call rests on the fitted dose curve; in most records, active means well fitted inhibition curve with a large enough effect; inconclusive means small, poorly fitted or top-dose-only effect; inactive means no such curve, though single readings can be large or run the other way.
Please reply with one of these outcomes: active, inactive

compound	assignedLabel
N#Cc1nc2c(nc1C#N)-c1ccccc1C2=O	inactive
Cn1cc(Nc2cnccc2C(=O)O)c2cccnc21	inactive
CCc1ccc(/C=C2/SC(=S)NC2=O)cc1	inactive
O=c1cc(CN2CCOCC2)occ1OCCCCCSc1ccnc2cc(C(F)(F)F)ccc12	inactive
NC(=O)c1cc[n+](CC2=C(C(=O)O)N3C(=O)[C@@H](NC(=O)[C@@H](c4ccccc4)S(=O)(=O)[O-])[C@H]3SC2)cc1	inactive

API: the following record is the query input.
Problem: What call does the record list for O=C1c2ccccc2NC(c2ccc(-c3ccccc3F)o2)N1O (configuration not stated) ?
Solution: inactive

* * *

Target: Retinaldehyde dehydrogenase 3 (Homo sapiens) (UniProt P47895)
Assay: qHTS for Inhibitors of the Aldehyde Dehydrogenase Family (ALDH1A3) Confirmatory screens (AID 2061311); also: nearly all actives have a fitted effect of over 60% in size
Conditions: ALDH inhibition qHTS; series mostly up to 46 µM
Records with an inconclusive call do not appear. The source made the active and inactive calls. The call rests on the fitted dose curve; in most records, active means well fitted inhibition curve with a large enough effect; inconclusive means small, poorly fitted or top-dose-only effect; inactive means no such curve, though single readings can be large or run the other way.
Write down the outcome that applies. Available outcomes: Yes (active), No (inactive)

The following compounds have reported results that may help.
compound	targetEntity	assignedLabel
CC(=O)c1c(O)cc2cccc3c2c1CC(C)(O)O3 (centres undefined)	Retinaldehyde dehydrogenase 3 (Homo sapiens) (UniProt P47895)	Yes
N#Cc1ccc(-c2ccc(C3Nc4ccccc4C(=O)N3O)o2)cc1 (centres undefined)	Retinaldehyde dehydrogenase 3 (Homo sapiens) (UniProt P47895)	Yes
COc1ccc(-c2csc(NC(=O)c3ccncc3NS(=O)(=O)c3ccc(C)cc3)n2)cc1	Retinaldehyde dehydrogenase 3 (Homo sapiens) (UniProt P47895)	No
N#C/C(=C\c1ccc(O)c(O)c1)C(=O)Nc1ccccc1	Retinaldehyde dehydrogenase 3 (Homo sapiens) (UniProt P47895)	Yes
COc1cc(/C=C(\C#N)C(=O)c2ccc(O)c(O)c2)cc(I)c1O	Retinaldehyde dehydrogenase 3 (Homo sapiens) (UniProt P47895)	Yes

Problem: How was CCOC(=O)c1c(-c2ccccc2)no[n+]1[O-] classified in this test?
Solution: No

Problem: What did this assay record as the result for N#CSc1cc(SC#N)c(N)nc1N ?
Solution: Yes

Problem: Dear colleague, could you share the recorded outcome for O=C1c2ccccc2C(=O)N1c1cccc2ccncc12 when you have a moment?
Solution: No
